Just for reference, ChEMBL document CHEMBL5247635 is where these values come from.

Target: Trypanothione reductase (Leishmania infantum, UniProt A4HSF7)
Sequence (A4HSF7 whole entry): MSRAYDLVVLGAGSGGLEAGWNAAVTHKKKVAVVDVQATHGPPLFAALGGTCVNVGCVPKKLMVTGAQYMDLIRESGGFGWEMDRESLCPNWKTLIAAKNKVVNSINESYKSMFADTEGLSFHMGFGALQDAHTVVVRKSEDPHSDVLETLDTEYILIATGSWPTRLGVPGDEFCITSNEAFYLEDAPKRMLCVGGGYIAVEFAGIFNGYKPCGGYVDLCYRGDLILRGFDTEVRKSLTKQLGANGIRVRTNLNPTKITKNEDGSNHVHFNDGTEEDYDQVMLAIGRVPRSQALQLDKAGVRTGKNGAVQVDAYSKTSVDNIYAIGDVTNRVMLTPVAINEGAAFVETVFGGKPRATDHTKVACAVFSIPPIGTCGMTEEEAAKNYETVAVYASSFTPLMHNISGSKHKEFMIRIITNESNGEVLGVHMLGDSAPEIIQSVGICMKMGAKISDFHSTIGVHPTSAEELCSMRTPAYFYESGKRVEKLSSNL
Assay: Mixed non-competitive inhibition of Leishmania infantum TryR using TS2 as substrate assessed as inhibition constant of first equilibrium by plot analysis
Outcome Measure: Ki (µM)

1) C[n+]1nn(-c2ccc(-c3nc(CCc4ccc(-c5ccccc5)cc4)cs3)c(OCCN3CCNC3=O)c2)cc1CCCCN.O=C(O)C(F)(F)F.O=S(=O)([O-])C(F)(F)F: 1.2

----------
Test system: Leishmania infantum
Experiment: Antileishmanial activity against GFP-expressing Leishmania infantum intracellular amastigotes infected in human THP-1 derived macrophage cells assessed as reduction in parasite viability measured for 72 hrs by resazurin/alamar blue fluorometric assay
Type: functional, organism-based
pEC50: −log10 of the molar value.
Measured pEC50 of individual entries
Outcome Measure: pEC50

1) C[n+]1nn(-c2ccc(-c3nc(CCc4ccc(-c5ccccc5)cc4)cs3)c(OCCN3CCNC3=O)c2)cc1CCCCN.O=C(O)C(F)(F)F.O=S(=O)([O-])C(F)(F)F: 5.06
2) CCCCCCCCCCCCCCCCOP(=O)([O-])OCC[N+](C)(C)C: 6.22
3) NCCCCc1cn(-c2ccc(-c3nc(CCc4ccccc4)cs3)c(OCCN3CCNC3=O)c2)nn1.O=C(O)C(F)(F)F: 4.53
4) C[n+]1nn(-c2ccc(-c3nc(CCc4ccc(-c5ccccc5)cc4)cs3)c(OCCN3CCNC3=O)c2)cc1CCCN.O=C(O)C(F)(F)F.O=S(=O)([O-])C(F)(F)F: 5.14
